# targetSystem: EGFR (human)
# appliedConditions: a431
reportedMetric: IC50 (µM)
Just the number in µM, nothing appended.

Ask: // query IC50 value for entry "CC(=O)N[C@@H]1CCN(C(=O)Cn2ccc(-c3ccc4ncnc(Nc5ccc(OCc6cccc(F)c6)c(Cl)c5)c4c3)c2)C1"
Reply: 0.626

Ask: // query IC50 value for entry Fc1cccc(Cn2ncc3cc(Nc4ncnc5ccc(-c6ccn(CCOC7CCCCO7)c6)cc45)ccc32)c1 (stereo not drawn)
Reply: 0.352

Ask: // query IC50 value for entry "O=C(Cn1ccc(-c2ccc3ncnc(Nc4ccc(OCc5cccc(F)c5)c(Cl)c4)c3c2)c1)N[C@H]1CC[C@H](O)CC1"
Reply: 0.327

Ask: // query IC50 value for entry "OCCc1cn(-c2ccc3ncnc(Nc4ccc(OCc5cccc(F)c5)c(Cl)c4)c3c2)cc1CN1CCCCC1"
Reply: 0.22

Ask: // query IC50 value for entry "O=S1(=O)CCC(CNCc2cc(-c3ccc4ncnc(Nc5ccc6c(cnn6Cc6cccc(F)c6)c5)c4c3)c[nH]2)CC1"
Reply: 1.1

Ask: // query IC50 value for entry "O=C(Cn1ccc(-c2ccc3ncnc(Nc4ccc(OCc5cccc(F)c5)c(Cl)c4)c3c2)c1)NCC1(O)CCS(=O)(=O)CC1"
Reply: 1.55

Ask: // query IC50 value for entry OC(Cn1ccc(-c2ccc3ncnc(Nc4ccc5c(cnn5Cc5cccc(F)c5)c4)c3c2)c1)Cn1ccnn1 (stereo not drawn)
Reply: 0.4

Ask: // query IC50 value for entry Fc1cccc(Cn2ncc3cc(Nc4ncnc5ccc(-c6ccn(CC7CNCCO7)c6)cc45)ccc32)c1 (stereo not drawn)
Reply: 0.71

* * *

# targetSystem: EGFR (human) (UniProt P00533)
# Sequence (P00533 whole entry, looked up): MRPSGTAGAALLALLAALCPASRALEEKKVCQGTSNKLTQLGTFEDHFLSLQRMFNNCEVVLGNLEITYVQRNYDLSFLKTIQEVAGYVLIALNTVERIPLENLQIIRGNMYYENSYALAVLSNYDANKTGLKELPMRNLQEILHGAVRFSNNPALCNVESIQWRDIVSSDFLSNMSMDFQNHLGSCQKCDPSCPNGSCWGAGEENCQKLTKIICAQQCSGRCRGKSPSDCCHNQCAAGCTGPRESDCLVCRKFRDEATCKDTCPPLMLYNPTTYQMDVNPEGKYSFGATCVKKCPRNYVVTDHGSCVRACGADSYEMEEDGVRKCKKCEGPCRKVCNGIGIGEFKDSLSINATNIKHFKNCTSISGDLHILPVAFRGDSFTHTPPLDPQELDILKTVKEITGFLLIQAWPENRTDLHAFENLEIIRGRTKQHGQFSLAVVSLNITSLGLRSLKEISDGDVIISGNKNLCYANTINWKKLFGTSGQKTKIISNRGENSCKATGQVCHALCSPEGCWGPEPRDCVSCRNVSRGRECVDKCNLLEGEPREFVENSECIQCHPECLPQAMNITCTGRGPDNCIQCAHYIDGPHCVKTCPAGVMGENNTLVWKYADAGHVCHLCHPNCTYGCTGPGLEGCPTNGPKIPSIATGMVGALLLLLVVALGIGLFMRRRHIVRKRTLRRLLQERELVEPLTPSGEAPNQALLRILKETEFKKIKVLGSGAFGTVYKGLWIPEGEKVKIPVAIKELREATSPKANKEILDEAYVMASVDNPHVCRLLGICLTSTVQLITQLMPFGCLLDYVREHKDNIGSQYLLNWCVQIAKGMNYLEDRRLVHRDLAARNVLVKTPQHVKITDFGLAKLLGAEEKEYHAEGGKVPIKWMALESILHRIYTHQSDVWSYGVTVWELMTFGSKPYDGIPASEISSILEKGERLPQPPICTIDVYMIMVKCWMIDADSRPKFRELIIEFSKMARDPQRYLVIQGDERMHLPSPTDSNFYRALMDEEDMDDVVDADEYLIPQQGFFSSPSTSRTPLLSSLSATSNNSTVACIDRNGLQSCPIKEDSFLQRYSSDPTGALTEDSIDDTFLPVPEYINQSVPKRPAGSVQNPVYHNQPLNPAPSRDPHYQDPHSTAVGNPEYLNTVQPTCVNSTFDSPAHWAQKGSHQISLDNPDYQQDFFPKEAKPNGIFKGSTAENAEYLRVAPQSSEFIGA
# appliedConditions: a431
reportedMetric: IC50 (nM)
Just the number in nM, nothing appended.

Ask: // query IC50 value for entry "O=C1OCCc2cn(-c3ccc4ncnc(Nc5ccc(OCc6ccccn6)c(Cl)c5)c4c3)cc21"
Reply: 810

Ask: // query IC50 value for entry CS(=O)(=O)N1CCN(CC(O)Cn2ccc(-c3ccc4ncnc(Nc5ccc(OCc6cccc(F)c6)c(Cl)c5)c4c3)c2)CC1 (centres undefined)
Reply: 1180

Ask: // query IC50 value for entry "CN1CCN(CCNC(=O)c2cn(-c3ccc4ncnc(Nc5ccc(OCc6ccccn6)c(Cl)c5)c4c3)cc2CCO)CC1"
Reply: 120

Ask: // query IC50 value for entry CC(=O)NC1CCN(CC(O)Cn2ccc(-c3ccc4ncnc(Nc5ccc(OCc6cccc(F)c6)c(Cl)c5)c4c3)c2)CC1 (centres undefined)
Reply: 1280

* * *

# targetSystem: EGFR (human) (UniProt P00533)
# appliedConditions: a431
Hi! Just check whether IC50 is below 300 nM. Below gives 1, equal or above gives -1.

Ask: Is IC50 of "CCN(CC)CCNCc1ccn(-c2ccc3ncnc(Nc4ccc(OCc5cccc(F)c5)c(Cl)c4)c3c2)c1" strictly below 300 nM?
Reply: 1

Ask: Is IC50 of O=S1(=O)CCC(NCC(O)Cn2ccc(-c3ccc4ncnc(Nc5ccc(OCc6cccc(F)c6)c(Cl)c5)c4c3)c2)CC1 (stereo not drawn) strictly below 300 nM?
Reply: -1

Ask: Is IC50 of "O=C(c1cn(-c2ccc3ncnc(Nc4ccc(OCc5ccccn5)c(Cl)c4)c3c2)cc1CCO)N1CCOCC1" strictly below 300 nM?
Reply: 1

Ask: Is IC50 of "CCN(CC)CCn1ccc(-c2ccc3ncnc(Nc4ccc5c(cnn5Cc5cccc(F)c5)c4)c3c2)c1" strictly below 300 nM?
Reply: -1

Ask: Is IC50 of "Cc1ccc(Oc2ccc(Nc3ncnc4ccc(-c5cc[nH]c5)cc34)cc2C)cn1" strictly below 300 nM?
Reply: 1

Ask: Is IC50 of "O=C1OCCc2cn(-c3ccc4ncnc(Nc5ccc(OCc6cccc(F)c6)c(Cl)c5)c4c3)cc21" strictly below 300 nM?
Reply: -1

Ask: Is IC50 of CCOC(=O)N1CCN(CC(O)Cn2ccc(-c3ccc4ncnc(Nc5ccc6c(cnn6Cc6cccc(F)c6)c5)c4c3)c2)CC1 (stereo not drawn) strictly below 300 nM?
Reply: 1

Ask: Is IC50 of "Fc1cccc(COc2ccc(Nc3ncnc4ccc(-n5cc(CNCCN6CCCC6)c(C(F)(F)F)c5)cc34)cc2Cl)c1" strictly below 300 nM?
Reply: -1

* * *

# targetSystem: EGFR (human)
# appliedConditions: a431
reportedMetric: IC50 (nM)
Just the number in nM, nothing appended.

Ask: Request body: readout IC50, system EGFR (human), query "O=C(NCCN1CCOCC1)c1cn(-c2ccc3ncnc(Nc4ccc(OCc5ccccn5)c(Cl)c4)c3c2)cc1CCO" . Return the value.
Reply: 25

Ask: Request body: readout IC50, system EGFR (human), query "O[C@H](CN1CCC[C@@H]1CN1CCCC1)Cn1ccc(-c2ccc3ncnc(Nc4ccc(OCc5cccc(F)c5)c(Cl)c4)c3c2)c1" . Return the value.
Reply: 746

Ask: Request body: readout IC50, system EGFR (human), query "Fc1cccc(COc2ccc(Nc3ncnc4ccc(-c5ccn(C[C@H]6COCCN6)c5)cc34)cc2Cl)c1" . Return the value.
Reply: 562

Ask: Request body: readout IC50, system EGFR (human), query O=C(C1CC1)N1CCN(CC(O)Cn2ccc(-c3ccc4ncnc(Nc5ccc(OCc6cccc(F)c6)c(Cl)c5)c4c3)c2)CC1 (centres undefined) . Return the value.
Reply: 1090

* * *

reportedMetric: IC50 (µM)
Just the number in µM, nothing appended.

Ask: Request body: readout IC50, system EGFR (human), query "COCCc1cn(-c2ccc3ncnc(Nc4ccc(OCc5cccc(F)c5)c(Cl)c4)c3c2)cc1C(=O)N1CCOCC1" . Return the value.
Reply: 0.072

Ask: Request body: readout IC50, system EGFR (human), query COCCCN1CCOC(Cn2ccc(-c3ccc4ncnc(Nc5ccc6c(cnn6Cc6cccc(F)c6)c5)c4c3)c2)C1 (stereo unspecified) . Return the value.
Reply: 0.291

Ask: Request body: readout IC50, system EGFR (human), query "O=S1(=O)CCC(CNCc2cn(-c3ccc4ncnc(Nc5ccc6c(cnn6Cc6cccc(F)c6)c5)c4c3)cc2CCO)CC1" . Return the value.
Reply: 0.012

Ask: Request body: readout IC50, system EGFR (human), query "Fc1cccc(Cn2ncc3cc(Nc4ncnc5ccc(-n6cccc6)cc45)ccc32)c1" . Return the value.
Reply: 0.006

Ask: Request body: readout IC50, system EGFR (human), query "O=C(NCCN1CCCCC1)c1cn(-c2ccc3ncnc(Nc4ccc(OCc5cccc(F)c5)c(Cl)c4)c3c2)cc1CCO" . Return the value.
Reply: 0.008

Ask: Request body: readout IC50, system EGFR (human), query "CN(C)Cc1cn(-c2ccc3ncnc(Nc4ccc5c(cnn5Cc5cccc(F)c5)c4)c3c2)cc1CCO" . Return the value.
Reply: 0.015

Ask: Request body: readout IC50, system EGFR (human), query "CS(=O)(=O)CCNCc1cn(-c2ccc3ncnc(Nc4ccc(OCc5cccc(F)c5)c(Cl)c4)c3c2)cc1CCO" . Return the value.
Reply: 0.011

Ask: Request body: readout IC50, system EGFR (human), query "CS(=O)(=O)n1ccc(-c2ccc3ncnc(Nc4ccc(OCc5cccc(F)c5)c(Cl)c4)c3c2)c1" . Return the value.
Reply: 0.014

Ask: Request body: readout IC50, system EGFR (human), query OC(CN1CCOCC1)Cn1ccc(-c2ccc3ncnc(Nc4ccc5c(cnn5Cc5cccc(F)c5)c4)c3c2)c1 (stereo unspecified) . Return the value.
Reply: 0.005

Ask: Request body: readout IC50, system EGFR (human), query "Fc1cccc(COc2ccc(Nc3ncnc4ccc(-n5cc(CNCCCN6CCOCC6)c(C(F)(F)F)c5)cc34)cc2Cl)c1" . Return the value.
Reply: 0.043

Ask: Request body: readout IC50, system EGFR (human), query "O=C(c1cn(-c2ccc3ncnc(Nc4ccc(OCc5ccccn5)c(Cl)c4)c3c2)cc1CCO)N1CCCCC1" . Return the value.
Reply: 0.095

Ask: Request body: readout IC50, system EGFR (human), query "OCCc1cn(-c2ccc3ncnc(Nc4ccc(OCc5cccc(F)c5)c(Cl)c4)c3c2)cc1CNCCN1CCOCC1" . Return the value.
Reply: 0.071

Ask: Request body: readout IC50, system EGFR (human), query "Fc1cccc(COc2ccc(Nc3ncnc4ccc(-c5c[nH]c(CNCCN6CCOCC6)c5)cc34)cc2Cl)c1" . Return the value.
Reply: 0.102

Ask: Request body: readout IC50, system EGFR (human), query "CCN(CC)CCNC(=O)c1cn(-c2ccc3ncnc(Nc4ccc5c(cnn5Cc5ccc(F)cc5)c4)c3c2)cc1CCO" . Return the value.
Reply: 0.156

Ask: Request body: readout IC50, system EGFR (human), query "Fc1cccc(COc2ccc(Nc3ncnc4ccc(-n5cc(CNCCN6CCOCC6)c(C(F)(F)F)c5)cc34)cc2Cl)c1" . Return the value.
Reply: 0.032

Ask: Request body: readout IC50, system EGFR (human), query OC(CN1CCC(N2CCCC2)CC1)Cn1ccc(-c2ccc3ncnc(Nc4ccc(OCc5cccc(F)c5)c(Cl)c4)c3c2)c1 (stereo unspecified) . Return the value.
Reply: 0.039
